Would you mind telling me the reported pIC50 of each entry?
# measurement.target: hTLR7 (Homo sapiens, UniProt Q9NYK1)
# Sequence (Q9NYK1 27-1049): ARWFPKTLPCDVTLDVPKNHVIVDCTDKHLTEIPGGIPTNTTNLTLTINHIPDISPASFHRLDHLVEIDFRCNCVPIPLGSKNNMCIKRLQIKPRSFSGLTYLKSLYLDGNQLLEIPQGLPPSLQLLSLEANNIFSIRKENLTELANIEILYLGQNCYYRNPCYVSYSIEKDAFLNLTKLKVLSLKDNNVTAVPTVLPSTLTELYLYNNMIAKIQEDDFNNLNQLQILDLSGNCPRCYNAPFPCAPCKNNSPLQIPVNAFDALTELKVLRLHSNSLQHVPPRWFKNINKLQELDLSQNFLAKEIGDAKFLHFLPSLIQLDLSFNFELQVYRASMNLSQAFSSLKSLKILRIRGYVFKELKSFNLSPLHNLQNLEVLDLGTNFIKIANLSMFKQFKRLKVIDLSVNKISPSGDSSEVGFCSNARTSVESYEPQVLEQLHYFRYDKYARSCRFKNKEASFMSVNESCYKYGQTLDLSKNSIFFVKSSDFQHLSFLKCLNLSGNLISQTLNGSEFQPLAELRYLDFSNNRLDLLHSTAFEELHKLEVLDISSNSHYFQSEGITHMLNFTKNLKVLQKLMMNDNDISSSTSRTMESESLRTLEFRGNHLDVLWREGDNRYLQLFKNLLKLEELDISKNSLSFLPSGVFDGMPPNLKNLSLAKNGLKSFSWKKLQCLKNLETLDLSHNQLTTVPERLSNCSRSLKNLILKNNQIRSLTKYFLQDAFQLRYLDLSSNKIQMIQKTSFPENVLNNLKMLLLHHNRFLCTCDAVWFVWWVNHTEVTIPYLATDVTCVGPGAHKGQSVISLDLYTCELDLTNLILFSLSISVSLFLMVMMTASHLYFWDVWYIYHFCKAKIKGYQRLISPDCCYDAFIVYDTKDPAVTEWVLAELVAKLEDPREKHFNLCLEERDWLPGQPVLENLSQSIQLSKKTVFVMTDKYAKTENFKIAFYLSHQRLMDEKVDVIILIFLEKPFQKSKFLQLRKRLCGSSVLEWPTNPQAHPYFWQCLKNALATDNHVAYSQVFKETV
# measurement.protocol: HEK293-Blue-hTLR-7 cells assay (SEAP reporter, R848 stimulation)
# Assay type: cell-based
# Parameters: host or cells: HEK293 (HEK-Blue)
# setup.conditions: HEK293-Blue-hTLR7 cells, R848, 20 hrs; read-out: HEK/hTLR7 IC50
Give bare numbers, as −log10 of the molar value.

{"columns": ["molecule", "measurement.target", "pIC50"],
 "data": [
  ["C[C@@H]1CN(c2ccc(C#N)c3ncccc23)C[C@H](CN2CCN(c3cc4c(cn3)C[C@H](C)NC4)CC2)O1 (single isomer, unassigned) [Example 76]", "hTLR7 (Homo sapiens, UniProt Q9NYK1)", 7.85],
  ["[2H]c1nc2c(C#N)ccc(N3C[C@H](CN4CCN(c5cc6c(cn5)[C@@H](C)NCC6)CC4)O[C@H](C)C3)c2nc1[2H] (single isomer, unassigned) [Example 95]", "hTLR7 (Homo sapiens, UniProt Q9NYK1)", 8.30],
  ["C[C@@H]1CN(c2ccc(C#N)c3ncccc23)C[C@H](CN2CCN(c3cc4c(cn3)CCNC4)CC2)O1 [Example 20]", "hTLR7 (Homo sapiens, UniProt Q9NYK1)", 8.10],
  ["C[C@@H]1CN(c2ccc(C#N)c3ncccc23)C[C@H](CN2CCN(c3cc4c(cn3)[C@H](C)NCC4)CC2)O1 (single isomer, unassigned) [Example 72]", "hTLR7 (Homo sapiens, UniProt Q9NYK1)", 7.89],
  ["C[C@@H]1CN(c2ccc(C#N)c3ncccc23)C[C@H](CN2CC3(C2)CN(c2ncc4c(n2)CCNC4)CCO3)O1 [Example 51]", "hTLR7 (Homo sapiens, UniProt Q9NYK1)", 7.92]
]}

Go through the items and report each one's pIC50.
1. C[C@@H]1CN(c2ccc(C#N)c3ncccc23)C[C@H](CN2CCN(c3ccc4c(c3)CNC4)CC2CO)O1 (stereo partly drawn) [Example 15]
2. C[C@@H]1CN(c2ccc(C#N)c3ncccc23)C[C@H](CN2CCN(c3cnc4c(c3)CCNC4)CC2)O1 [Example 23]

Result block:
7.14
7.23

Count: 2. Required value per item: pIC50.
1. C[C@@H]1CN(c2ccc(C#N)c3ncccc23)C[C@H](CN2CCN(c3ncc4c(n3)CCNC4)CC2)O1 [Example 29]
2. C[C@@H]1CN(c2ccc(C#N)c3ncccc23)C[C@H](CN2CCN(c3cc4c(cn3)[C@@H](C)NCC4)CC2)O1 (single isomer, unassigned) [Example 73]

Result block:
7.96
7.77
